Measured IC50, listed per entry for reference.
# measurement.target: DGKζ (Homo sapiens (Human))
# measurement.description: Biochemical DGK IC50 assay, DGKζ ADP-Glo assay
# experimental.conditions: 0.5 nM enzyme, 140 μM ATP, 80 μM DAG; read-out: DGKζ ADP-Glo assay IC50
The reply should contain only the number, in nM.

Request body: readout IC50, system DGKζ (Homo sapiens (Human)), query CC(c1ccc2ncc(Cl)nc2c1)N1C[C@H](C)N(c2cc(=O)n(C)c3cn(CC#N)nc23)C[C@H]1C (stereo partly shown) . Return the value.
34

Request body: readout IC50, system DGKζ (Homo sapiens (Human)), query CC#CCn1cc2c(n1)c(N1C[C@@H](C)N(C(C)c3ccc4c(c3)OC(F)(F)O4)C[C@@H]1C)cc(=O)n2C (stereo partly shown) . Return the value.
1650

Request body: readout IC50, system DGKζ (Homo sapiens (Human)), query CC[C@H]1CN(C(C)c2ccccc2C(F)(F)F)[C@H](CC)CN1c1cc(=O)n(C)c2cn(CC#N)nc12 (single isomer, unassigned) [Compound A197a] . Return the value.
2050

Request body: readout IC50, system DGKζ (Homo sapiens (Human)), query CC[C@H]1CN(C(C)c2ccc(C(F)(F)F)cc2OC)[C@H](CC)CN1c1cc(=O)n(C)c2cn(CC#N)nc12 (stereo partly shown) . Return the value.
1030

Request body: readout IC50, system DGKζ (Homo sapiens (Human)), query CC[C@H]1CN(C(C)c2cnc(C)c(C)n2)[C@H](CC)CN1c1cc(=O)n(C)c2cn(CC#N)nc12 (single isomer, unassigned) [Compound A355a] . Return the value.
6420

Request body: readout IC50, system DGKζ (Homo sapiens (Human)), query CCS(=O)(=O)N1CC(CC#N)(n2cc3c(n2)c(N2C[C@@H](C)N(C(C)c4ccc5nccnc5c4)C[C@@H]2C)cc(=O)n3C)C1 (stereo partly shown) . Return the value.
24000

Request body: readout IC50, system DGKζ (Homo sapiens (Human)), query Cc1cnc2ccc([C@H](C)N3C[C@H](C)N(c4c(F)c(=O)n(C)c5cn(CC#N)nc45)C[C@H]3C)cc2n1 . Return the value.
21

Request body: readout IC50, system DGKζ (Homo sapiens (Human)), query CC[C@H]1CN(C(C)c2ccc3nccnc3c2)[C@H](CC)CN1c1cc(=O)n(CC(F)(F)F)c2cn(CC#N)nc12 (stereo partly shown) . Return the value.
1740

====

Measured IC50, listed per entry for reference.
# measurement.target: DGKζ (Homo sapiens (Human), UniProt Q13574)
# Sequence (Q13574 other isoform, or with tags, fused parts or gaps): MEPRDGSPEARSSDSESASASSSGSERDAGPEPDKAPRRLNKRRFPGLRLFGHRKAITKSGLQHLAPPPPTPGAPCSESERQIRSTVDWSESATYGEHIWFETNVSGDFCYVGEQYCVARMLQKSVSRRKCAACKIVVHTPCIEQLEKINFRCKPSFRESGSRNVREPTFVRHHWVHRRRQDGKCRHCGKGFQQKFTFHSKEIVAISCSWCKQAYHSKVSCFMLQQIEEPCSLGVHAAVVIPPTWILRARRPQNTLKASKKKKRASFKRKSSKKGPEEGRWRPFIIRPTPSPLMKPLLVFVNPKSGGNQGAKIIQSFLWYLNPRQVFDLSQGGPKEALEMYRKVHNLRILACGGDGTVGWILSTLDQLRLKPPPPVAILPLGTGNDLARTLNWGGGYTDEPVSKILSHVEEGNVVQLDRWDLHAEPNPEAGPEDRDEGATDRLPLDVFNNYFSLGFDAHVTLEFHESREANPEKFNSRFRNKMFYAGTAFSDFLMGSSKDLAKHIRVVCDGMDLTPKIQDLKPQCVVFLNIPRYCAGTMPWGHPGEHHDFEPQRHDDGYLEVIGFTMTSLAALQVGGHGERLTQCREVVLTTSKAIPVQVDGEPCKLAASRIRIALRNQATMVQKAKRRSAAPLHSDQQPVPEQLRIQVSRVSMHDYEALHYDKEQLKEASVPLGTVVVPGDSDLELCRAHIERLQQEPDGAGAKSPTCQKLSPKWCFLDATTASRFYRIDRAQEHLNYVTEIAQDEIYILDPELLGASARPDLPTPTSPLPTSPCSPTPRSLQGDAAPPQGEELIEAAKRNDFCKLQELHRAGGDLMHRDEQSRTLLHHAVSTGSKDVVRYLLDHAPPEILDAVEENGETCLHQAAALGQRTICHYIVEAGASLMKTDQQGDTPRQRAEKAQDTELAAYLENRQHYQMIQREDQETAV
# measurement.description: Biochemical DGK IC50 assay, DGKζ ADP-Glo assay
# experimental.conditions: 0.5 nM enzyme, 140 μM ATP, 80 μM DAG; read-out: DGKζ ADP-Glo assay IC50
The reply should contain only the number, in nM.

For orientation, consider the following solved cases.
CC[C@H]1CN(C(C)c2ncc(F)cc2F)[C@H](CC)CN1c1cc(=O)n(C)c2cn(CC#N)nc12 (stereo partly shown) [Compound A148]
190
CC[C@H]1CN(C(C)c2ccc(C)cc2)[C@H](CC)CN1c1cc(=O)n(C)c2cn(CC#N)nc12 (stereo partly shown) [Compound A127]
260
C=C(C)n1cc2c(n1)c(N1C[C@@H](C)N(C(C)c3ccc4nccnc4c3)C[C@@H]1C)cc(=O)n2C (stereo partly shown) [Compound A24]
4300
CC[C@H]1CN(C(C)c2ccc(OC3CCOCC3)cc2)[C@H](CC)CN1c1cc(=O)n(C)c2cn(CC#N)nc12 (stereo partly shown) [Compound A380]
667

Proceed to the following item.
What value of IC50 has been reported for the following compound? CC(c1ccc2ncnn2c1)N1C[C@H](C)N(c2cc(=O)n(C)c3cn(CC#N)nc23)C[C@H]1C (stereo partly shown) [Compound A34]
5800

====

Measured IC50, listed per entry for reference.
# measurement.target: UniProtKB Q13574
# measurement.description: Biochemical DGK IC50 assay, DGKζ ADP-Glo assay
# experimental.conditions: 0.5 nM enzyme, 140 μM ATP, 80 μM DAG; read-out: DGKζ ADP-Glo assay IC50
The reply should contain only the number, in nM.

For orientation, consider the following solved cases.
COC1(c2cc(F)ccc2C(C)N2C[C@H](C)N(c3cc(=O)n(C)c4cn(CC#N)nc34)C[C@H]2C)CC1 (stereo partly shown)
91
CC[C@@H]1CN(c2cc(=O)n(C)c3cn(CC(F)F)nc23)[C@@H](C)CN1C(C)c1ccc2nccnc2c1 (single isomer, unassigned) [Compound A222a]
452
CC[C@H]1CN(C(C)c2ccc(C(F)F)cn2)[C@H](CC)CN1c1cc(=O)n(C)c2cn(CC#N)nc12 (single isomer, unassigned) [Compound A347a]
4800
Cc1cc2cc(C(C)N3C[C@H](C)N(c4cc(=O)n(C)c5cn(CC#N)nc45)C[C@H]3C)ccc2cn1 (mixture of isomers)
763
CC[C@H]1CN(C(C)c2ccc3nccnc3c2)[C@H](C)CN1c1cc(=O)n(C)c2cn(CC#N)nc12 (stereo partly shown) [Compound A98]
410
CC#CCn1cc2c(n1)c(N1C[C@@H](C)N(C(C)c3ccc4ncc(C(F)F)nc4c3)C[C@@H]1C)cc(=O)n2C (stereo partly shown)
142
CC[C@H]1CN(C(C)c2nc3ccccc3s2)[C@H](CC)CN1c1cc(=O)n(C)c2cn(CC#N)nc12 (stereo partly shown)
72
CC[C@H]1CN(C(C)c2cn3ccccc3n2)[C@H](CC)CN1c1cc(=O)n(C)c2cn(CC#N)nc12 (stereo partly shown)
1250

What value of IC50 has been reported for the following molecule? CCC(c1ccc2nccnc2c1)N1C[C@H](C)N(c2cc(=O)n(C)c3cn(CC#N)nc23)C[C@H]1C (stereo partly shown)
194

====

# measurement.target: DGKα (Homo sapiens (Human), UniProt P23743)
# Sequence (P23743 whole entry): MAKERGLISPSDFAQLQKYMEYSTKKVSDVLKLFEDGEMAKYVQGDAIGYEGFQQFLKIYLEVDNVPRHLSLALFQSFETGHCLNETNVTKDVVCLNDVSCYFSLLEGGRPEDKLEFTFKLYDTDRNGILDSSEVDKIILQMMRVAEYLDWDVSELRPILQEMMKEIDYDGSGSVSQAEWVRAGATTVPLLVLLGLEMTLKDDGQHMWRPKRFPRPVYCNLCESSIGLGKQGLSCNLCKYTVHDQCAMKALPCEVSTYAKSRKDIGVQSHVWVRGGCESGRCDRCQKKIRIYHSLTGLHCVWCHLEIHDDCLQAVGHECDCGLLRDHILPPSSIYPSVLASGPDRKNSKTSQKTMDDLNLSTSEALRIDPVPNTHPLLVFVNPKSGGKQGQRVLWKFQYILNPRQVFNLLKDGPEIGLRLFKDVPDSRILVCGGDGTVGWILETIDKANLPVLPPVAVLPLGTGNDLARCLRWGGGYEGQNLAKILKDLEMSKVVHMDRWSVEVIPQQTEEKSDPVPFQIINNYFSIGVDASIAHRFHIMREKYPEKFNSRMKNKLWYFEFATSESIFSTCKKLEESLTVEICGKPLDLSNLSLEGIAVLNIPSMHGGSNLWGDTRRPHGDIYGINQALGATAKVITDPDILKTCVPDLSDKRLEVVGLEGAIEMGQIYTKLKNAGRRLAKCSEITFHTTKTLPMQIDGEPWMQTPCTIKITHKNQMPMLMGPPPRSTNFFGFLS
pIC50: −log10 of the molar value.
Use true (1) when the recorded pIC50 is no lower than 6; use false (0) when it is lower.

CC[C@H]1CN(C(C)c2ccc(C(F)F)cn2)[C@H](CC)CN1c1cc(=O)n(C)c2cn(CC#N)nc12 (single isomer, unassigned) [Compound A347a]
true (1)
CCc1cnc2ccc(C(C)N3C[C@H](C)N(c4cc(=O)n(C)c5cn(CC#N)nc45)C[C@H]3C)cc2n1 (stereo partly drawn)
false (0)
CC[C@H]1CN(C(C)c2cnc(C)c(C)n2)[C@H](CC)CN1c1cc(=O)n(C)c2cn(CC#N)nc12 (single isomer, unassigned) [Compound A355b]
false (0)
CC[C@H]1CN(C(C)c2ccc3nccnc3c2)[C@H](CC)CN1c1cc(=O)n(CCOC)c2cn(CC#N)nc12 (stereo partly drawn)
false (0)
CC[C@H]1CN(C(C)c2ccc(F)cc2C(C)O)[C@H](CC)CN1c1cc(=O)n(C)c2cn(CC#N)nc12 (stereo partly drawn)
false (0)

Decide: pIC50 of CC(c1ccc2nccnc2c1)N1C[C@H](C)N(c2cc(=O)n(C)c3cn(CC4CO4)nc23)C[C@H]1C (stereo partly drawn) >= 6?
false (0)

Decide: pIC50 of CC[C@H]1CN(C(C)c2nc3ccc(C(F)(F)F)cc3n2CC)[C@H](CC)CN1c1cc(=O)n(C)c2cn(CC#N)nc12 (single isomer, unassigned) [Compound A204b] >= 6?
false (0)

Decide: pIC50 of CC[C@H]1CN(C(C)c2ncc(OC(C)C)cc2F)[C@H](CC)CN1c1cc(=O)n(C)c2cn(CC#N)nc12 (stereo partly drawn) >= 6?
false (0)

Decide: pIC50 of CC[C@H]1CN(C(C)c2ccccc2OC)[C@H](CC)CN1c1cc(=O)n(C)c2cn(CC#N)nc12 (single isomer, unassigned) [Compound A106a] >= 6?
false (0)

====

# measurement.target: DGKζ (Homo sapiens (Human), UniProt Q13574)
# measurement.description: Biochemical DGK IC50 assay, DGKζ ADP-Glo assay
# experimental.conditions: 0.5 nM enzyme, 140 μM ATP, 80 μM DAG; read-out: DGKζ ADP-Glo assay IC50
test.readout: log10 of IC50 (log10 of the value in nM)
Scale: decimal log of IC50, IC50 in nM.

For orientation, consider the following solved cases.
COCc1cc(F)ccc1C(C)N1C[C@H](C)N(c2cc(=O)n(C)c3cn(CC#N)nc23)C[C@H]1C (stereo partly shown) [Compound A29]
2.04
CC[C@H]1CN(C(C)c2ccc(OC)cc2)[C@H](CC)CN1c1cc(=O)n(C)c2cn(CC#N)nc12 (stereo partly shown) [Compound A377]
2.24
CC[C@H]1CN(C(C)c2ccc(F)cc2OC(F)(F)F)[C@H](CC)CN1c1cc(=O)n(C)c2cn(CC#N)nc12 (stereo partly shown) [Compound A170]
2.95
CC(c1ccc2nccnc2c1)N1C[C@H](C)N(c2cc(=O)n(C)c3cn(CCO)nc23)C[C@H]1C (stereo partly shown) [Compound A9]
4.48
Cc1nc2cc(C(C)N3C[C@H](C)N(c4cc(=O)n(C)c5cn(CC#N)nc45)C[C@H]3C)ccc2s1 (stereo partly shown) [Compound A320]
2.20

Proceed to the following item.
What value of log10 of IC50 has been reported for the following molecule? CC[C@@H]1CN(c2cc(=O)n(C)c3cn(CC#N)nc23)[C@@H](CC)CN1C(=O)c1cnc2ccccc2n1 [Compound A374]
1.71
